Data origin, for the record: the EternaBench riboswitch data

System: MS2 coat protein
protocolNotes: apparent Kd, MS2 coat protein; higher = weaker binding; RNA-MaP array; FMN 200 µM where present
assaySetup: designed as: OFF switch for flavin mononucleotide; no ligand
Documented apparent Kd across a set of sequences

Some solved entries appear below for comparison.
>>> valuereported("AGAAGACAUGAGGAUCACCCAUGUAAGGAUAUUGGAGGUUAGGGAUGCUGGAGUUGGACAAGAAGGUACAGGUG")
"52.8 nM"
>>> valuereported("CUGCGUCGUGUUAGGAUAUCCAGCGGUGCGCGCCAGGAGAAGGAACAUGAGGAUCACCCAUGUAAACCGAUGGC")
"12.4 nM"

Challenge: Provide apparent Kd value for the following sequence: `CCAUAAUUGAUCCAUUUUUACAACAUGAGGAUCACCCAUGUGCAGGAUAUCGUGAAAGUUAAAUACGAGAAGGGCAAGAACUGC`
Response given: 272 nM

Challenge: Note down apparent Kd recorded for `CAGGUAGCUACAGGAUAUACACGUCUGGAUAAACCAGACGAAUAACCCACAUGAGGAUCACCCAUGUAGAAGGGUAGCUGCCUG`
Response given: 15.4 nM

Challenge: Retrieve apparent Kd measured for `UCAGUAGAGUCAGGAUAUACGAAAGUAGAUCCUUACAUGAGGAUCACCCAUGUAGAAGGGACUCUACUGUAAGUCGGAAACGAC` and print it.
Response given: 14.1 nM

Challenge: Identify measured apparent Kd associated with `GUAGUGUAUGUAGGAUAUGUGAAGGAAACAUUUACAGAAGGACAUGAGGAUCACCCAUGUAUUUCAGUCACCAAUGUGACUGAU`
Response given: 24.7 nM

Challenge: Give recorded apparent Kd. `AGUACCAUGUAGAAGGGAUAUCUGAUUCAGAUAUCAGGAUAUACAUGAGGAUCACCCAUGUAAAUGUACUCCAGGAAACUGGAA`
Response given: 18 nM

----------
Test system: MS2 coat protein
protocolNotes: apparent Kd, MS2 coat protein; higher = weaker binding; RNA-MaP array; FMN 200 µM where present
assaySetup: designed as: ON switch for flavin mononucleotide; no ligand
Reported apparent Kd values are given for each entry in this list.
Reply with just the number (in µM).

Challenge: Answer with the recorded apparent Kd of `AAGAAAGAAACGUAGGAUAUCAAGAAUAUAACAUGAGGAUCACCCAUGUAAAUACGAAAGUAUAAUGAGAAGGAUGGAUGAUCUUC` only.
Response given: 0.102

----------
Tested on: MS2 coat protein
protocolNotes: apparent Kd, MS2 coat protein; higher = weaker binding; RNA-MaP array; FMN 200 µM where present
assaySetup: ligand present: flavin mononucleotide; designed as: OFF switch for flavin mononucleotide
Classification by apparent Kd follows these ranges: LOW = under 20 nM, MEDIUM = from 20 nM up to 80 nM, HIGH = 80 nM and over

>>> grouplabel("ACAUGAGGAUCACCCAUGUAUUUGUAGGAUAUACUCUAUUGUUUAUUACUCUAGUUAAAAUGUUUGUAGAAGGACAUUACAUGA")
"LOW"

Challenge: Hey, which category is `CAGGUAGCUACAGGAUAUACACGUCUGGAUAAACCAGACGAAUAACCCACAUGAGGAUCACCCAUGUAGAAGGGUAGCUGCCUG` in, do you know?
Response given: MEDIUM

Challenge: Sort into band: `GCACUUAGAGUUGAACCGUUACUAACAUGAGGAUCACCCAUGUAGGAUAUGCUAAUAGUAUUGAAGCAGAAGGACACUAAGUGC`
Response given: LOW

Challenge: # classify by apparent Kd band: `GCUCUGUUAGGAUAUUUCGGCAUAGGUAUAACUUAAGCGUGAGAGAAGGAACAUGAGGAUCACCCAUGUUAAUC`
Response given: MEDIUM

Challenge: Category of `CUUUUGUGAGGAUAUUAGUAGUAAAUAAAUAAAAUUAUUACUGAGAAGGUACAUGAGGAUCACCCAUGUUCCUC` , please.
Response given: MEDIUM

Challenge: Category of `CAUGUGAGCGAGGAUAUUUUACGGGAAACUUUCAGAGAAGGCGCUACAUGAGGAUCACCCAUGUCCGUCAGUCC` :
Response given: HIGH

Challenge: Textbook exercise: identify the category of the sequence given here, `GAUCAACAUGAGGAUCACCCAUGUGAGGAUAUGAUACUAUGUACUUCGGUACAUAGUAUCAGAAGGCAUAUUGA` , according to its measured value.
Response given: MEDIUM

----------
System: MS2 coat protein
protocolNotes: apparent Kd, MS2 coat protein; higher = weaker binding; RNA-MaP array; FMN 200 µM where present
assaySetup: designed as: ON switch for flavin mononucleotide; no ligand
endpointLabel: apparent Kd (µM)
Give the value, in units of µM, as a plain number.

Consider the following illustrative entries.
>>> valuereported("UACGUUCUACGCGACAUGAGGAUCACCCAUGUUAGCCGAUCACAGGAUAUGUUGGAGCCGGUCGAACAGAAGGGUGAGUCUGCU")
0.0388
>>> valuereported("UCAUAUUUACAAGGAUAUCAAUUAAUUAAACAUCCUACAUGAGGAUCACCCAUGUUAAAAUAUUAUGAGAAGGUGUAUUGUCGG")
0.0327
>>> valuereported("UAUUUUAACUAAGGAUAUCUGUAUUAUGUAGAAACAUGAGGAUCACCCAUGUUCUUGAUAUUAUAGGAGAAGGUAGAUGAAUAA")
0.0066
>>> valuereported("UUGGACGUCGUAGGAUAUGUAGGAUAUUCCUACAUGAGGAUCACCCAUGUUGACAUGGAAGAAGGACAGAAGGACGAUUUCCAU")
0.284
>>> valuereported("AGCUAAAUGUCAGGAUAUGCCCGCCAGGUGGAAGCAGAAGGGACAUACCAGACAUGAGGAUCACCCAUGUAAACUGGGUAAGAA")
0.142
>>> valuereported("CGUAAGAUGCAGAAGGUGUUAGCUAGAGCUACGACAUGAGGAUCACCCAUGUACUAGAAACAGUACAAGGAUAUGCAUCUUACA")
0.0173
>>> valuereported("UCGACCAGCGCCAGCCGAACAUGAGGAUCACCCAUGUACUCCAGAAGGCCGCCCAAGAACGGAGUGGAGGAUAUGGAGGUUCUC")
0.038
>>> valuereported("UUGGACGUCGUAGGAUAUGUAGGAUAUUCCUACAUGAGGAUCACCCAUGUUGACAUGGAAGCAGGACAGAAGGACGAUGUCCAU")
0.578
>>> valuereported("GGUAAACAUGAGGAUCACCCAUGUAAUAAUAUGGGAGGAUAUGGGAAUUAAUUAAUUAAACCAGAAGGCCUAAUUG")
0.216
>>> valuereported("UCCUACAUGGGAGGAUAUCCUCAAGAGACAUGAGGAUCACCCAUGUAUUAUAUGCCUCAUGGCAUGGAGAAGGCCCAUGUAGGU")
0.205

Challenge: Given `UAAAUUUUGUAAGGAUAUACACGAGAUUCAAGUGUAGAAGGUACUUACAUGAGGAUCACCCAUGUAUACAUGGAUAAUAGAUAU` , respond with its apparent Kd.
Response given: 0.436

Challenge: Complete the entry with apparent Kd for `GCGCCGCAGCGGUACACGAGACAUGAGGAUCACCCAUGUGACAGAAGGGACUUGUUAAAGGUAGGUCAGGAUAUGUCUUAAAAG`
Response given: 0.184

Challenge: Find the measured apparent Kd of `AACCUAUUACAGAAGGCCAGCUACAUGAGGAUCACCCAUGUCGAGUCAUGGAGGAUAUGUAGUAAUUUACUCACAGAUGAGUGA` and report it.
Response given: 0.0229

Challenge: Identify measured apparent Kd corresponding to `UCGAUGUAAGAGAAGGAGGACUUCAUGAGGAUCACCCAUGUGUUAGUACUUAGGAUAUUUGACAACAUGAGGAUCACCCAUGUC`
Response given: 0.0643

----------
Test system: MS2 coat protein
protocolNotes: apparent Kd, MS2 coat protein; higher = weaker binding; RNA-MaP array; theophylline 2 mM where present
assaySetup: ligand present: theophylline; designed as: OFF switch for theophylline
endpointLabel: apparent Kd (µM)
Output spec: scalar in µM, unitless text.

>>> valuereported("ACAUGAGGAUCACCCAUGUUCCUCAUUGAUACCAGUGAAUUUAGACGCCCUUGGCAGCGAGUUUUUGAAGAAGAAGUUUUUUUUU")
1.08
>>> valuereported("GAUGAACAUACUGAUACCAGUGUACUGACAUGAGGAUCACCCAUGUUGGGUUUUGUUGUACACCCUUGGCAGCAGAAUGUUUAUC")
0.0789

Challenge: Provide only the value of recorded apparent Kd for `ACAUGAGGAUCACCCAUGUUCCUCUUUGAUACCAGUGAGUUGUUUCGCCCUUGGCAGCGAGUUUUUUUUUUUUUGUUUUGUUUGG`
Response given: 0.39

----------
Test system: MS2 coat protein
protocolNotes: apparent Kd, MS2 coat protein; higher = weaker binding; RNA-MaP array; FMN 200 µM where present
assaySetup: designed as: OFF switch for flavin mononucleotide; no ligand
endpointLabel: apparent Kd (nM)
Dear colleague, please return just the value in nM, with no unit written.

>>> valuereported("UAUACUUACGAAGGAUAUGGUUACAUGAGGAUCACCCAUGUAUGUAUAUUGAUCUAGUAUUUUAACCAGAAGGUCGUGAGUAUA")
65.5
>>> valuereported("AGAAAAGCAGGAUAUAUCCGGGAUAACAUGAGGAUCACCCAUGUGACCGCUUGAUAUCCUAUAGAAGGGCUUAAGA")
24.4
>>> valuereported("AAGGUGUAAGGAUAUGCUGCUCGUCACUUGCGUGAUGAGUAGCAGAAGGUACAUGAGGAUCACCCAUGUAAAGA")
32.5
>>> valuereported("CUUUUGUGAGGAUAUUAGUAGUAAAUAAAUAAAAUUAUUACUGAGAAGGUACAUGAGGAUCACCCAUGUUCCUC")
18.3

Challenge: State its apparent Kd for this sequence: `CGGAGGUCAGGAUAUGCAUGGCGGGACUUGCGUCGUGGCGUGCAGAAGGGACAUGAGGAUCACCCAUGUGGAGU`
Response given: 147

Challenge: Read off the recorded apparent Kd for `AAAAAUCGAGGAUAUACAUGAGGAUCACCCAUGUGGGACCAAGAAAACACAAAAGAAAGUAGAAGGCGAUAAAA`
Response given: 29.2

Challenge: Respond only with apparent Kd recorded for `CUGUGAUGGAUCCAGAAUUACAACAUGAGGAUCACCCAUGUGCAGGAUAUCGGGUUGAUAGGCGCCGAGAAGGGUAUGAUCACG`
Response given: 164

Challenge: Output apparent Kd of `GAUGAGAGAGGAUAUACAUGAGGAUCACCCAUGUAAUUUUCGGACAUGGAAGCCUGAUGUAGAAGGCUCGCAUG`
Response given: 78.5

Challenge: Give a short answer stating reported apparent Kd for `CGCAACUCAGAUCUUUUUAACAUGAGGAUCACCCAUGUAUUGAGAAGGAGGAAGAAGAGAGAUUCCUAGGAUAUCAGAGUUGCG` .
Response given: 5.4

Challenge: For the sequence `UUGUUCUGAGGAUAUACAUGAGGAUCACCCAUGUGUUUCUGCUUGGUGACUAGCGAAUGUAGAAGGCUGUUCUC` , report apparent Kd.
Response given: 33.6

Challenge: // Input: `CCACCCUGAGGAUAUCCACCCUCAUACAUGAGGAUCACCCAUGUUCAUCCCUGAGUACCCGGAGAAGGCAGAUUCC` . Output its apparent Kd only.
Response given: 60.3
